Measured pEC50 accompanies every entry in the list below.
# ASSAY_TARGET: M2 muscarinic receptor (Homo sapiens, UniProt P08172)
# Construct: expressed in transfected cells; host or cells: CHO (M2-CHO)
# Sequence (P08172 1-466): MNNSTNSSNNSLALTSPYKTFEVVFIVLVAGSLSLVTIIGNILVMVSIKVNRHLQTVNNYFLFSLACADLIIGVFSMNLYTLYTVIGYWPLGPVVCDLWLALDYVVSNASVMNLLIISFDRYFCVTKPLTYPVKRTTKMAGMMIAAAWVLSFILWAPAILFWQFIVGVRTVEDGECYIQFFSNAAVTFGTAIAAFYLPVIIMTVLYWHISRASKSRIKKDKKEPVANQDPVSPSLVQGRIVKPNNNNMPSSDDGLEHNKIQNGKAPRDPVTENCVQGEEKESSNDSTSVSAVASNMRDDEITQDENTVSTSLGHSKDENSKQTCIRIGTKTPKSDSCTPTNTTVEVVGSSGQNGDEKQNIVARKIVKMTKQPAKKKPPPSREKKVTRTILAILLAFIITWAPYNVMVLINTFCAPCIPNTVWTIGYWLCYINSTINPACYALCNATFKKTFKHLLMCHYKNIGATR
# ASSAY_METHOD_TEXT: Functional mobilization of intracellular calcium (FLIPR) in CHO cells expressing M2
# Format: cell-based
# SETTINGS: CHO cells expressing M2, FLIPR calcium
pEC50: −log10 of the molar value.

Reference set, count: 7
COMPOUND	pEC50
CC(=O)N[C@H]1CCC2(CCN(CC(=O)C(C)(C)C)CC2)c2ccccc21	< 5.30
C[C@@H](C(=O)N[C@H]1CCC2(CCN(CCC(C)(C)C)CC2)c2cc(F)ccc21)N1CCCC1=O	> 5.70
CC(C)(C)CCN1CCC2(CC[C@H](NC(=O)C3CCCO3)c3ccc(F)cc32)CC1 (some centres unmarked)	> 5.70
C[C@@H](C(=O)N[C@@H]1CCC2(CCN(CCC(C)(C)C)CC2)c2cc(F)ccc21)N1CCCC1=O	5.30 to 5.70
CC(C)(C)CCN1CCC2(CC[C@H](N3CCCC3=O)c3ccc(F)cc32)CC1	> 5.70
CC(C)(C)CCN1CCC2(CC[C@H](NC(=O)C3CCCO3)c3ccccc32)CC1 (some centres unmarked)	> 5.70
CC(C)NC(=O)C1CCC2(CCN(CCC(C)(C)C)CC2)c2ccccc21 (centres unmarked)	< 5.30

pEC50 lookup needed for CN(C(=O)C1CC1)[C@H]1CCC2(CCN(CCC(C)(C)C)CC2)c2ccccc21 , thanks.
< 5.30
